Biological target: HiBiT tagged BRD4-BD1 protein in HEK293/LgBiT/hPGK/HiBiT-BRD4-BD1 cells (Homo sapiens, UniProt O60885)
Assay: BET BD1 domain degradation assay
Format: cell-based
Parameters: HiBit-linker-BRD4 BD1(1-209); host or cells: HEK293 (ATCC CRL-1573) stably transduced with LgBiT and HiBiT-BRD4-BD1
Details: concentration for 50% reduction in HiBiT-BRD4-BD1 protein level, 3 hours, read-out: Absolute DC50—3 h (nM) HEK293_HiBiT-BRD4-BD1
// values below are reported DC50

Molecule	DC50
COc1ccc(C#CCNC2(C)CCN(C3CCN(c4nc(C(CO)(OC5CC5)c5ccccc5)c5cc(-c6cn(C)c(=O)c7[nH]ccc67)ccc5n4)CC3)CC2)cc1N1CCC(=O)NC1=O (stereo in doubt) [Example 145]	0.045 nM
COc1ccc(C(=O)NC2(C)CCN(C3CCN(c4nc([C@@](CO)(OC5CC5)c5ccccc5)c5cc(-c6cn(C)c(=O)c7[nH]ccc67)ccc5n4)CC3)CC2)cc1N1CCC(=O)NC1=O (stereo in doubt)	0.15 nM
COc1ccc(C(=O)NC2(C)CCN(C3CCN(c4nc(C(CO)(OC5CC5)c5cccc6ccccc56)c5cc(-c6cn(C)c(=O)c7[nH]ccc67)ccc5n4)CC3)CC2)cc1N1CCC(=O)NC1=O (centres unmarked)	0.25 nM
COc1ccc(C#CCNC2(C)CCN(C3CCN(c4nc(C(CO)(OC5CC5)c5ccccc5)c5cc(-c6cn(C)c(=O)c7[nH]ccc67)ccc5n4)CC3)CC2)cc1N1CCC(=O)NC1=O (centres unmarked) [Example 144]	0.11 nM
COc1ccc(C#CCNC2(C)CCN(C3CCN(c4nc([C@@](CO)(OC5CC5)c5ccccc5)c5cc(-c6cn(C)c(=O)c7[nH]ccc67)ccc5n4)CC3)CC2)cc1N1CCC(=O)N(CNC(=O)[C@H](CC(=O)O)NC(C)=O)C1=O	> 100 nM
